PROTOCOL: OV-KATE Cancer Cell Toxicity qHTS against the NCATS CANVASS Library (AID 1347345)
TEST_CONDITIONS: OV-KATE cells viability, CellTiter-Glo luminescence, 72 h; series mostly up to 38.3 µM
Results filed as inconclusive are left out. Active and inactive are the calls of the source. The call rests on the fitted dose curve; in most records, active means well fitted cell-killing curve with a large enough effect; inconclusive means small, poorly fitted or top-dose-only effect; inactive means flat fitted curve, though single readings scatter.
# valid calls are Yes for active, No for inactive; nothing else

Example results:
{"columns": ["MOLECULE", "DISCRETE_LABEL"],
 "data": [
  ["COc1ccc(C23Oc4cc(OC)cc(OC)c4[C@](O)([C@H](c4ccccc4)C2C(=O)NCCCCNC(=O)c2ccccc2)[C@@H]3O)cc1 (stereo not given in full)", "No"],
  ["CCC(=O)CCCCC[C@@H]1NC(=O)[C@H]2CCCCN2C(=O)[C@H]([C@@H](C)CC)NC(=O)[C@H](Cc2cn(OC)c3ccccc23)NC1=O", "Yes"],
  ["C[C@]12CC(O)C3[C@@H](CCC4C[C@@H](O)CC[C@@]43CO)[C@@]1(O)CCC2C1=CC(=O)OC1 (stereo not given in full)", "No"],
  ["c1ccc2c3c([nH]c2c1)CNCC3", "No"],
  ["CNCCc1ccccc1", "No"],
  ["CNCCc1c[nH]c2ccccc12", "No"],
  ["CCCCC[C@@H]1OC(=O)[C@@H](C)N(C)C(=O)[C@H](CCCCC)OC(=O)C(C)N(C)C(=O)[C@H](CCCCC)OC(=O)[C@@H](C)N(C)C(=O)[C@H](CCCCC)OC(=O)C(C)N(C)C1=O (stereo not given in full)", "Yes"],
  ["CCN1C[C@]2(C)CC[C@@H](O)[C@]34C1[C@H](C[C@H]23)C12CCC(CC14)[C@](O)(CO)[C@H]2O (stereo not given in full)", "No"],
  ["COC(=O)C1=C2Nc3ccccc3[C@@]23CCN2CC(C(C)=O)C1C[C@H]23 (stereo not given in full)", "No"],
  ["CCC[C@H]1CC[C@H]2[C@H](C)CCC[C@H]2N1", "No"]
]}

// param item: C[C@@H]1CC[C@@H](c2ccoc2)N2C[C@@]3(CC[C@@H]12)CS[C@@]1(CC[C@H]2[C@H](C)CC[C@@H](c4ccoc4)N2[C@@H]1O)C3 ; yields the recorded call Yes

// param item: CN1C(=O)[C@]23CC4C(C)(C)[C@@]5(C[C@@]41CN2CC[C@@]3(C)O)C(=O)Nc1c5ccc2c1OC=CC(C)(C)O2 (stereo not given in full) ; yields the recorded call No

// param item: NCCc1ccccc1 ; yields the recorded call No

// param item: CC(=O)N[C@H]1CCN2CCC[C@H]12 ; yields the recorded call No

// param item: CN(C)Cc1c[nH]c2ccccc12 ; yields the recorded call No

====

PROTOCOL: MultiTox-Fluor Cytotoxicity Assay - LYMP1-001 - Dead Cells (AID 946);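 further: cells exposed to compound for 16 h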
TEST_CONDITIONS: LYMP1-001 lymphoblastoid cells, dead-cell protease fluorescence; series mostly up to 92.2 µM
Results filed as inconclusive are left out. The source made the active and inactive calls. The call rests on the fitted dose curve; in most records, active means well fitted cell-killing curve with a large enough effect; inconclusive means small, poorly fitted or top-dose-only effect, or effect the other way; inactive means flat fitted curve, though single readings scatter.
# valid calls are active, inactive; nothing else

Example results:
{"columns": ["COMPOUND", "DISCRETE_LABEL"],
 "data": [
  ["Oc1c(Cl)c(Cl)c(Cl)c(Cl)c1Cl", "inactive"],
  ["CC(C)COC(=O)c1ccccc1C(=O)OCC(C)C", "inactive"],
  ["O=Cc1ccccc1", "inactive"],
  ["CCOC(=O)c1ccccc1N", "inactive"],
  ["CC(C)(c1ccc(OCC2CO2)cc1)c1ccc(OCC2CO2)cc1 (configuration not stated)", "inactive"]
]}

// param item: CCOc1cc(C=O)ccc1O ; yields the recorded call inactive

// param item: CC(=O)[C@H]1CC[C@H]2[C@@H]3CCC4=CC(=O)CC[C@]4(C)[C@H]3CC[C@]12C ; yields the recorded call active
